Tested on: MRC-5 fibroblasts
measurement_description: Cytotoxicity (Neutral Red), MRC-5 fibroblasts
Type: cell-based, human
particulars: 24 h exposure
measured_quantity: Concentration range with no significant decrease in viability of MRC-5 cells

Request body: readout Concentration range with no significant decrease in viability of MRC-5 cells, system MRC-5 fibroblasts, query C=CCSSSCC=C [Diallyl trisulfide, diallyl trisulfide] . Return the value.
0 to 50 µM

Input COc1cc(/C=C/C(=O)O)ccc1O
0 to 1000 µM

Next entry: O=C(O)/C=C/c1ccc(O)cc1
0 to 1000 µM

* * *

Known Concentration range with no significant decrease in viability of SKOV-3 cells of a selection of compounds
Test system: SKOV-3 ovarian cancer cells
measurement_description: Cytotoxicity (Neutral Red), SKOV-3 cells
Format: cell-based, human
particulars: 24 h exposure

compound="O=C(O)/C=C/c1ccc(O)cc1 [Coumaric acid]" experimental_target="SKOV-3 ovarian cancer cells" data_value="0 to 1000 µM"

Here is the next item to consider.
Entry COc1cc(/C=C/C(=O)O)ccc1O [Ferulic acid, ferulic acid] , system SKOV-3 ovarian cancer cells: what Concentration range with no significant decrease in viability of SKOV-3 cells was measured?
0 to 1000 µM
